Taken from patent US7341998B2.

SYSTEM_TESTED: voltage-gated Na channels
Assay type: cell-based, squid (Loligo opalescens)
pKi: −log10 of the molar value.
PROPERTY_LABEL: pKi

input: Recall the recorded pKi for MKLTCVLVVLLLLLPYGDLITNNYIRGAARKVTPWRRNLKTRDVCDSLVGGHCIHNGCWCDQEAPHGNCCDTDGCTAAWWCPGTKWD [calTx1.1A] with voltage-gated Na channels and state it.
output: ~7.82
